# Lookup of reported Ki keyed by entry
target: human cathepsin K (Homo sapiens, UniProt P43235); construct: The proform of cathepsin K was converted to mature cathepsin K by brief exposure to pH 4; made in house; host or cells: baculovirus; Trichoplusia ni High Five cells (virus raised in Sf-9); assay: Cathepsin K inhibition assay, fluorogenic substrate Cbz-Phe-Arg-AMC, progress curve method; format: biochemical; conditions: Table 1; human recombinant enzyme, pH 5.5, 30° C., 10 μM substrate; read-out: hCat K Ki
Sequence (P43235 115-329): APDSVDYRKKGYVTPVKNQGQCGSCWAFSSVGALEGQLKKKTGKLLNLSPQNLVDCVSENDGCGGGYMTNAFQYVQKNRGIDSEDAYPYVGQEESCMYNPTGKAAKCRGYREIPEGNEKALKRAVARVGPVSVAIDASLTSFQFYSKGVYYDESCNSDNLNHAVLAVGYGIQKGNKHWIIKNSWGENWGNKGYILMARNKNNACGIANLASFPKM

Here's what some known entries look like.
- Smiles entry: "CCCC[C@H](NC(=O)O[C@@H](c1nnc(-c2cccnc2)o1)C(C)(C)C)C(=O)C(=O)Nc1ccn[nH]1"
  Ki: "1 to 100 nM"
- Smiles entry: "CCCC[C@H](NC(=O)O[C@@H](Cc1nnc(-c2ccc(F)cc2)o1)C(C)(C)C)C(=O)C(=O)N[C@H](C)c1ccccc1"
  Ki: "100 to 10000 nM"
- Smiles entry: "CCCC[C@H](NC(=O)O[C@@H](Cn1cnc(-c2ccccc2)c1)C(C)(C)C)C(=O)C(=O)N[C@H](C)c1ccccc1"
  Ki: "100 to 10000 nM"
- Smiles entry: "CCCC[C@H](NC(=O)O[C@@H](Cc1nnc(-c2ccccc2)o1)C(C)(C)C)C(=O)C(=O)N[C@H](C)c1ccccc1"
  Ki: "100 to 10000 nM"
- Smiles entry: "CCCC[C@H](NC(=O)O[C@H](Cn1cnc(-c2ccccc2)c1)C(C)(C)C)C(=O)C(=O)N[C@H](C)c1ccccc1"
  Ki: "0.01 to 1 nM"

Checklist item: Ki tested on human cathepsin K (Homo sapiens, UniProt P43235), entry `CCCC[C@H](NC(=O)O[C@H](c1nnc(-c2ccc(C(F)(F)F)cc2)o1)C(C)(C)C)C(=O)C(=O)Nc1ccn[nH]1` , value?
0.01 to 1 nM

What about `CCCC[C@H](NC(=O)O[C@H](Cn1cnc(-c2cc(C(F)(F)F)cc(C(F)(F)F)c2)c1)C(C)(C)C)C(=O)C(=O)Nc1ccn[nH]1` ?
0.01 to 1 nM

How about `CCCC[C@H](NC(=O)O[C@H](Cc1nnc(-c2ccc(C(F)(F)F)cc2)o1)C(C)(C)C)C(=O)C(=O)NN1CCOC1=O` ?
0.01 to 1 nM

Now the compound `CCCC[C@H](NC(=O)O[C@H](Cn1ccc(-c2cccnc2)n1)C(C)(C)C)C(=O)C(=O)Nc1ccn[nH]1`
0.01 to 1 nM

----------
target: human cathepsin H (Homo sapiens)
Sequence (P09668 116-335 limits assumed, other chains not shown): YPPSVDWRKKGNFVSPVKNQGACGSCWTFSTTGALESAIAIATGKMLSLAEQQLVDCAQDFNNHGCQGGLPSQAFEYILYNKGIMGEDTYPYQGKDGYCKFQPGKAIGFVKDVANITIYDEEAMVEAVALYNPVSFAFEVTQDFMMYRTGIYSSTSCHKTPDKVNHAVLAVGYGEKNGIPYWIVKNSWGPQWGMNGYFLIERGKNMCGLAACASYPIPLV
pKi: −log10 of the molar value.
Property measured: pKi

Item `CCCC[C@H](NC(=O)O[C@H](Cn1ccc(-c2ccc(C(F)(F)F)cc2)n1)C(C)(C)C)C(=O)C(=O)Nc1ccn[nH]1` has what recorded pKi?
5.00 to 7.00

----------
target: human cathepsin B (Homo sapiens, UniProt P07858)
pKi: −log10 of the molar value.
Property measured: pKi

Using the record for CCCC[C@H](NC(=O)O[C@H](Cc1nnc(-c2ccc(F)cc2)o1)C(C)(C)C)C(=O)C(=O)Nc1ccnn1C (stereo in doubt) , report its pKi.
5.00 to 7.00

----------
target: UniProt:P25774; test: Cathepsin S inhibition assay, fluorogenic substrate Cbz-Val-Val-Arg-AMC; details: Table 2; human recombinant enzyme, pH 5.5, 30° C., 10 μM substrate; read-out: hCat S Ki
Sequence (P25774 115-331): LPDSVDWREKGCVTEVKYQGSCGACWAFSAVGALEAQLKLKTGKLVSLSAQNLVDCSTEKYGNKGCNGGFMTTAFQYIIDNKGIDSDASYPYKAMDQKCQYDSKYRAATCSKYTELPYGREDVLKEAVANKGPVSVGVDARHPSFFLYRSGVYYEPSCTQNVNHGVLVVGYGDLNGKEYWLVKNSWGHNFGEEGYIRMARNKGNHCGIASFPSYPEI
pKi: −log10 of the molar value.
Parameter: pKi. Scope: all listed entries.

Some solved cases for reference:
- Molecule: "CCCC[C@H](NC(=O)O[C@H](Cn1cnc(-c2ccc(C(F)(F)F)cc2)c1)C(C)(C)C)C(=O)C(=O)Nc1ccnn1C1CCC1"
  pKi: "7.00 to 9.00"
- Molecule: "CCCC[C@H](NC(=O)O[C@H](Cn1ccc(-c2ccc(C(F)(F)F)cc2)n1)C(C)(C)C)C(=O)C(=O)Nc1ccn[nH]1"
  pKi: "9.00 to 11.00"
- Molecule: "CCCC[C@H](NC(=O)O[C@H](Cn1cnc(-c2ccc(C(F)(F)F)cc2)c1)C(C)(C)C)C(=O)C(=O)Nc1ccn[nH]1"
  pKi: "9.00 to 11.00"
- Molecule: "CCCC[C@H](NC(=O)O[C@H](c1nnc(-c2ccc(C(F)(F)F)cc2)o1)C(C)(C)C)C(=O)C(=O)Nc1ccn[nH]1"
  pKi: "7.00 to 9.00"
- Molecule: "CCCC[C@H](NC(=O)O[C@H](Cc1nnc(-c2ccc(F)cc2)o1)C(C)(C)C)C(=O)C(=O)Nc1ccnn1C (stereo in doubt)"
  pKi: "5.00 to 7.00"

Value lookup for pKi; key = `CCCC[C@H](NC(=O)O[C@H](Cn1cnc2cc(Cl)c(Cl)cc21)C(C)(C)C)C(=O)C(=O)Nc1ccn[nH]1`
9.00 to 11.00

Would you mind doing `CCCC[C@H](NC(=O)O[C@H](c1nnc(-c2ccc(C(F)(F)F)cc2)o1)C(C)(C)C)C(=O)C(=O)NN1CCOC1=O` as well?
7.00 to 9.00

----------
target: human cathepsin K (Homo sapiens, UniProt P43235); construct: The proform of cathepsin K was converted to mature cathepsin K by brief exposure to pH 4; made in house; host or cells: baculovirus; Trichoplusia ni High Five cells (virus raised in Sf-9); assay: Cathepsin K inhibition assay, fluorogenic substrate Cbz-Phe-Arg-AMC, progress curve method; format: biochemical; settings: Table 1; human recombinant enzyme, pH 5.5, 30° C., 10 μM substrate; read-out: hCat K Ki
pKi: −log10 of the molar value.
Property measured: pKi

Some solved cases for reference:
- Compound: "CCCC[C@H](NC(=O)O[C@H](Cc1nnc(-c2ccc(C(F)(F)F)cc2)o1)C(C)(C)C)C(=O)C(=O)Nc1ccn[nH]1 [Example 3]"
  pKi: "9.00 to 11.00"
- Compound: "CCCC[C@H](NC(=O)O[C@H](COc1ccc(OCc2ccccc2)cc1)C(C)(C)C)C(=O)C(=O)Nc1ccn[nH]1 [Example 47]"
  pKi: "9.00 to 11.00"

As a next step, examine the compound that follows.
What does the data say about its pKi? Entry: CCCC[C@H](NC(=O)O[C@H](Cc1nnc(-c2ccc(F)cc2)o1)C(C)(C)C)C(=O)C(=O)N[C@H]1CCCNC1=O [Example 25]
9.00 to 11.00

----------
compounds and their reported pKi
target: human cathepsin K (Homo sapiens, UniProt P43235); construct: The proform of cathepsin K was converted to mature cathepsin K by brief exposure to pH 4; made in house; host or cells: baculovirus; Trichoplusia ni High Five cells (virus raised in Sf-9); experiment: Cathepsin K inhibition assay, fluorogenic substrate Cbz-Phe-Arg-AMC, progress curve method; assay type: biochemical; conditions: Table 1; human recombinant enzyme, pH 5.5, 30° C., 10 μM substrate; read-out: hCat K Ki
pKi: −log10 of the molar value.

Fill blank: measured pKi of the compound `CCCC[C@H](NC(=O)O[C@H](c1nc2ccccc2s1)C(C)(C)C)C(=O)C(=O)Nc1ccn[nH]1` is ____.
9.00 to 11.00

Lookup `CCCC[C@H](NC(=O)O[C@H](Cc1nnc(-c2ccc(F)cc2)o1)C(C)(C)C)C(=O)C(=O)Nc1ccn[nH]1`
9.00 to 11.00

Request: `CCCC[C@H](NC(=O)O[C@H](Cc1nnc(-c2ccc(F)cc2)o1)C(C)(C)C)C(=O)C(=O)NCc1ccncc1`
7.00 to 9.00

Also `CCCC[C@H](NC(=O)O[C@@H](Cc1nnc(-c2ccccc2)o1)C(C)(C)CC)C(=O)C(=O)N[C@H](C)c1ccccc1` , if possible.
5.00 to 7.00

Follow-up item: `CCCC[C@H](NC(=O)O[C@H](COc1ccc(C(N)=O)cc1)C(C)(C)C)C(=O)C(=O)Nc1ccn[nH]1`
9.00 to 11.00

Queued: `CCCC[C@H](NC(=O)O[C@@H](c1nc2ccccc2s1)C(C)(C)C)C(=O)C(=O)Nc1ccn[nH]1`
5.00 to 7.00

What about this compound? `CCCC[C@H](NC(=O)O[C@H](Cn1cnc2ccccc21)C(C)(C)C)C(=O)C(=O)Nc1ccn[nH]1`
9.00 to 11.00

Another compound to look at: `CCCC[C@H](NC(=O)O[C@H](Cc1nnc(-c2ccc(F)cc2)o1)C(C)(C)C)C(=O)C(=O)N[C@H](C)c1ccccc1`
9.00 to 11.00

Likewise for `CCCC[C@H](NC(=O)O[C@H](Cn1ccc(-c2cccnc2)n1)C(C)(C)C)C(=O)C(=O)Nc1nccs1` ?
9.00 to 11.00

Lookup CCCC[C@H](NC(=O)O[C@H](Cc1nnc(-c2ccc(F)cc2)o1)C(C)(C)C)C(=O)C(=O)Nc1ccnn1C (stereo in doubt)
7.00 to 9.00

Repeat for the following compound: `CCCC[C@H](NC(=O)O[C@H](Cc1nnc(-c2ccc(C(F)(F)F)cc2)o1)C(C)(C)C)C(=O)C(=O)N[C@H](C)c1ccccc1`
9.00 to 11.00

Also need `CCCC[C@H](NC(=O)O[C@H](c1nnc(-c2ccc(C(F)(F)F)cc2)o1)C(C)(C)C)C(=O)C(=O)NN1CCOC1=O` , thanks.
9.00 to 11.00

Now try `CCCC[C@H](NC(=O)O[C@H](Cn1cnc(Cc2ccccc2)c1)C(C)(C)C)C(=O)C(=O)Nc1ccn[nH]1` .
9.00 to 11.00

Moving on to `CCCC[C@H](NC(=O)O[C@H](Cn1ccc(C(F)(F)F)n1)C(C)(C)C)C(=O)C(=O)Nc1ccn[nH]1`
9.00 to 11.00

Another compound to check: `CCCC[C@H](NC(=O)O[C@@H](c1nc2c(OCC)ccc(OCC)c2n1C)C(C)(C)C)C(=O)C(=O)Nc1ccn[nH]1`
5.00 to 7.00

Data provenance is patent US20050107616A1.
